Where do these numbers come from? They come from ChEMBL document CHEMBL1147745.

Test system: MCF7
assay-notes: Cytotoxicity against human MCF7 cell line
Assay type: functional, cell-based
property: pIC50
pIC50 is defined as minus the log10 of a concentration measured in mol/L.

The cases that follow already have their pIC50 on record.
COc1ccc2cc(/C=C/C(=O)O[C@H]3C[C@@]4(O)[C@@H](OC(=O)c5ccccc5)[C@@H]5[C@]6(OC(C)=O)CO[C@@H]6C[C@H](O)[C@@]5(C)C(=O)[C@H](O)C(=C3C)C4(C)C)ccc2c1 :: 5.28
COc1ccc(C(=O)O[C@H]2[C@@H]3[C@]4(OC(C)=O)CO[C@@H]4C[C@H](O)[C@@]3(C)C(=O)[C@H](O)C3=C(C)[C@@H](OC(=O)/C=C/c4ccc5ccccc5c4)C[C@]2(O)C3(C)C)cc1 :: 5.12
CC(=O)O[C@@]12CO[C@@H]1C[C@H](O)[C@@]1(C)C(=O)[C@H](O)C3=C(C)[C@@H](OC(=O)/C=C/c4ccc(Oc5ccccc5)cc4)C[C@@](O)([C@@H](OC(=O)c4ccccc4)[C@H]21)C3(C)C :: 5.03
CC(=O)O[C@H]1C(=O)[C@@]2(C)[C@H]([C@H](OC(=O)c3ccccc3)[C@]3(O)C[C@H](OC(=O)[C@H](O)[C@@H](NC(=O)c4ccccc4)c4ccccc4)C(C)=C1C3(C)C)[C@]1(OC(C)=O)CO[C@@H]1C[C@@H]2O :: 7.72
CC(=O)O[C@@]12CO[C@@H]1C[C@H](O)[C@@]1(C)C(=O)[C@H](OC(=O)/C=C/c3ccc4ccccc4c3)C3=C(C)[C@@H](O)C[C@@](O)([C@@H](OC(=O)c4ccccc4)[C@H]21)C3(C)C :: 4.85

-- ask Look up pIC50: CC(=O)O[C@@]12CO[C@@H]1C[C@H](O)[C@@]1(C)C(=O)[C@H](OC(=O)CN(C)C)C3=C(C)[C@@H](OC(=O)/C=C/c4ccc5ccccc5c4)C[C@@](O)([C@@H](OC(=O)c4ccccc4)[C@H]21)C3(C)C
-- reply 5.15

###

Tested on: Mycobacterium tuberculosis
assay-notes: Antimicrobial activity against Mycobacterium tuberculosis H37Rv
Assay type: functional
property: MIC99 (µM)
Lab book: enter the figure in µM, no units written.

CCN(CC)CCC(=O)O[C@H]1C(=O)[C@@]2(C)[C@H]([C@H](OC(=O)c3ccccc3)[C@]3(O)C[C@H](OC(=O)/C=C/c4ccc5ccccc5c4)C(C)=C1C3(C)C)[C@]1(OC(C)=O)CO[C@@H]1C[C@@H]2O :: 10

-- ask Fill in: MIC99 of COc1ccc2cc(/C=C/C(=O)O[C@H]3C[C@@]4(O)[C@@H](OC(=O)c5ccccc5)[C@H]([C@]5(OC(C)=O)CO[C@@H]5CCO)/C(C)=C(/O)C(=O)C(=C3C)C4(C)C)ccc2c1 is ___
-- reply 2.5

-- ask I have this compound here, CC(=O)O[C@@]1([C@@H]2/C(C)=C(/O)C(=O)C3=C(C)[C@@H](OC(=O)/C=C/c4ccc5ccccc5c4)C[C@@](O)([C@H]2OC(=O)c2ccccc2)C3(C)C)CO[C@@H]1CCO , and I need its recorded MIC99.
-- reply 2.5

-- ask Could you tell me which MIC99 is on file for CC(=O)O[C@@]1([C@@H]2/C(C)=C(/O)C(=O)C3=C(C)[C@@H](OC(=O)/C=C/c4ccc(Oc5ccccc5)cc4)C[C@@](O)([C@H]2OC(=O)c2ccccc2)C3(C)C)CO[C@@H]1CCO ?
-- reply 2.5

-- ask What does the data say about its MIC99? Entry: CC(=O)O[C@@]12CO[C@@H]1C[C@H](O)[C@@]1(C)C(=O)[C@H](OC(=O)CN(C)C)C3=C(C)[C@@H](OC(=O)/C=C/c4ccc5ccccc5c4)C[C@@](O)([C@@H](OC(=O)c4ccccc4)[C@H]21)C3(C)C
-- reply 10

###

Test system: MCF7
assay-notes: Cytotoxicity against human MCF7 cell line
Format: functional, cell-based
property: pIC50
pIC50 field: float, defined as -log10 of concentration (mol/L).

-- ask Given CC(=O)O[C@@]12CO[C@@H]1C[C@H](O)[C@@]1(C)C(=O)[C@H](O)C3=C(C)[C@@H](OC(=O)/C=C/c4ccc(Sc5ccccc5)cc4)C[C@@](O)([C@@H](OC(=O)c4ccccc4)[C@H]21)C3(C)C , state its recorded pIC50.
-- reply 5.47

-- ask For CC(=O)O[C@@]12CO[C@@H]1C[C@H](O)[C@@]1(C)C(=O)[C@H](O)C3=C(C)[C@@H](OC(=O)/C=C/c4ccc5ccccc5c4)C[C@@](O)([C@@H](OC(=O)c4ccccc4)[C@H]21)C3(C)C , what is its reported pIC50?
-- reply 5.35

-- ask Request the reported pIC50 associated with CC(=O)O[C@@]12CO[C@@H]1C[C@H](O)[C@@]1(C)C(=O)[C@H](O)C3=C(C)[C@@H](OC(=O)/C=C/c4cccc5ccccc45)C[C@@](O)([C@@H](OC(=O)c4ccccc4)[C@H]21)C3(C)C
-- reply 5.27

-- ask Using the record for CCN(CC)CCC(=O)O[C@H]1C[C@H]2OC[C@@]2(OC(C)=O)[C@H]2[C@H](OC(=O)c3ccccc3)[C@]3(O)C[C@H](OC(=O)/C=C/c4ccc5ccccc5c4)C(C)=C([C@@H](OC(C)=O)C(=O)[C@]12C)C3(C)C , report its pIC50.
-- reply 5.03

-- ask Given the entry CCCCCC(=O)O[C@H]1C(=O)[C@@]2(C)[C@H]([C@H](OC(=O)c3ccccc3)[C@]3(O)C[C@H](OC(=O)[C@H](O)[C@@H](NC(=O)c4ccccc4)c4ccccc4)C(C)=C1C3(C)C)[C@]1(OC(C)=O)CO[C@@H]1C[C@@H]2O , report its measured pIC50.
-- reply 6.19

-- ask Entry CCN(CC)CCC(=O)O[C@H]1C(=O)[C@@]2(C)[C@H]([C@H](OC(=O)c3ccccc3)[C@]3(O)C[C@H](OC(=O)/C=C/c4ccc5ccccc5c4)C(C)=C1C3(C)C)[C@]1(OC(C)=O)CO[C@@H]1C[C@@H]2O : reported pIC50 = ?
-- reply 5.41

###

System: A549
assay-notes: Cytotoxicity against human A549 cell line
Type: functional, cell-based
property: IC50 (µM)
Write the answer as a number in µM, unit excluded.

Example entries and their recorded answers appear below.
CC(=O)O[C@H]1C(=O)[C@@]2(C)[C@H]([C@H](OC(=O)c3ccccc3)[C@]3(O)C[C@H](OC(=O)[C@H](O)[C@@H](NC(=O)c4ccccc4)c4ccccc4)C(C)=C1C3(C)C)[C@]1(OC(C)=O)CO[C@@H]1C[C@@H]2O :: 0.028
CCN(CC)CCC(=O)O[C@H]1C(=O)[C@@]2(C)[C@H]([C@H](OC(=O)c3ccccc3)[C@]3(O)C[C@H](OC(=O)/C=C/c4ccc5ccccc5c4)C(C)=C1C3(C)C)[C@]1(OC(C)=O)CO[C@@H]1C[C@@H]2O :: 9.6
CC(=O)O[C@@]12CO[C@@H]1C[C@H](O)[C@@]1(C)C(=O)[C@H](OC(=O)CN(C)C)C3=C(C)[C@@H](OC(=O)/C=C/c4ccc5ccccc5c4)C[C@@](O)([C@@H](OC(=O)c4ccccc4)[C@H]21)C3(C)C :: 10.8
COc1ccc2cc(/C=C/C(=O)O[C@H]3C[C@@]4(O)[C@@H](OC(=O)c5ccccc5)[C@@H]5[C@]6(OC(C)=O)CO[C@@H]6C[C@H](O)[C@@]5(C)C(=O)[C@H](O)C(=C3C)C4(C)C)ccc2c1 :: 5

-- ask Entry under review: CC(=O)O[C@@]12CO[C@@H]1C[C@H](O)[C@@]1(C)C(=O)[C@H](O)C3=C(C)[C@@H](OC(=O)/C=C/c4ccc5ccccc5c4)C[C@@](O)([C@@H](OC(=O)c4ccccc4)[C@H]21)C3(C)C . Reported IC50?
-- reply 15.7

###

MIC99 for assorted compounds
Tested on: Mycobacterium tuberculosis
assay-notes: Antimicrobial activity against Mycobacterium tuberculosis H37Rv
Format: functional
Give the quantity in µM, number only.

CC(=O)O[C@H]1C(=O)[C@@]2(C)[C@H]([C@H](OC(=O)c3ccccc3)[C@]3(O)C[C@H](OC(=O)[C@H](O)[C@@H](NC(=O)c4ccccc4)c4ccccc4)C(C)=C1C3(C)C)[C@]1(OC(C)=O)CO[C@@H]1C[C@@H]2O :: 40
CCCCCC(=O)O[C@H]1C(=O)[C@@]2(C)[C@H]([C@H](OC(=O)c3ccccc3)[C@]3(O)C[C@H](OC(=O)[C@H](O)[C@@H](NC(=O)c4ccccc4)c4ccccc4)C(C)=C1C3(C)C)[C@]1(OC(C)=O)CO[C@@H]1C[C@@H]2O :: 5
CC(=O)O[C@@]12CO[C@@H]1C[C@H](O)[C@@]1(C)C(=O)[C@H](O)C3=C(C)[C@@H](OC(=O)/C=C/c4ccc(Oc5ccccc5)cc4)C[C@@](O)([C@@H](OC(=O)c4ccccc4)[C@H]21)C3(C)C :: 10

With those in mind, consider the next compound.
-- ask # input compound: CCN(CC)CCC(=O)O[C@H]1C[C@H]2OC[C@@]2(OC(C)=O)[C@H]2[C@H](OC(=O)c3ccccc3)[C@]3(O)C[C@H](OC(=O)/C=C/c4ccc5ccccc5c4)C(C)=C([C@@H](OC(C)=O)C(=O)[C@]12C)C3(C)C ; wanted: its MIC99
-- reply 10
